System: HL-60
assay.name: NCI tumour cell line growth inhibition, 48 h
Active and inactive are the calls of the source. No stated cut-off is given here; in the data, active = GI50 up to about 1.1 µM and inactive = higher.
Provide the recorded GI50 for the entries that follow.

Some compounds with recorded GI50:
O=C1c2ccccc2-c2c3c(cc4ccnc1c24)OCO3 ... 3 µM (inactive)
CCOC(=O)n1ccc2c(C(=O)OC)c(C(=O)OC)cc(/C(=C/C(=O)OC)C(=O)OC)c21 ... > 100 µM (inactive)
O=c1oc2ccc3ccccc3c2cc1-c1nnc(-c2ccc([N+](=O)[O-])cc2)[nH]1 ... > 100 µM (inactive)
CCN(CC)C(=O)N[C@@H](CC(C)C)C(=O)NC ... 43.3 µM (inactive)
NC(CCC(=O)O)C(=O)NC(Cc1ccc(N(CCCl)CCCl)cc1)C(=O)O (stereo not drawn) ... > 100 µM (inactive)
COc1cc(/C=C2/SC(c3ccccc3)N(c3ccc(NC(C)=O)cc3)C2=O)cc(OC)c1OC (stereo not drawn) ... 66.4 µM (inactive)
O=C(O)CC(O)(C(=O)O)C(O)C(=O)O (stereo not drawn) ... > 1000 µM (inactive)

Next compound, please.
Challenge: GI50 for Cc1ccc(C)c(NC(=O)C(=O)CC(=O)C2CCOC2=O)c1 (stereo not drawn) ?
Response given: > 100 µM (inactive)

###

Test system: HOP-92
assay.name: NCI tumour cell line growth inhibition, 48 h
Calls of active or inactive are those of the source. Cut-off read from the data, not from the text of the source: active = GI50 up to about 1.1 µM and inactive = higher.
experimental.readout: GI50

Here is how some molecules turned out for GI50.
COC(CN(C(=O)c1ccccc1)C1CCC2(SCCS2)c2[nH]c3ccccc3c21)OC (stereo not given) ... 7.24 µM (inactive)
Cc1cn(CC2=NCC(C)(C)N2)c(=O)[nH]c1=O ... > 100 µM (inactive)
COC(=O)C(=O)C(C(=O)C(=O)Nc1ccc(C)cc1)c1nc2ccc(C(=O)c3ccccc3)cc2nc1O (stereo not given) ... > 100 µM (inactive)
COC(=O)C1(O)C(c2ccccc2)=NC2(C)CCCC21 (stereo not given) ... > 100 µM (inactive)

Challenge: Dear colleague, I am looking for the recorded GI50 of the following molecule: COc1cc(C2c3cc4c(cc3[C@@H](Nc3ccc(F)cc3)C3COC(=O)[C@H]23)OCO4)cc(OC)c1O (stereo not given in full)
Response given: 2.91 µM (inactive)

###

Test system: SN12C
assay.name: NCI tumour cell line growth inhibition, 48 h
The source made the active and inactive calls. Rule as the data show it: active = GI50 up to about 1.1 µM and inactive = higher.
Hi there, use one of these labels in your reply, thanks! TRUE = active, FALSE = inactive

Challenge: In this assay, the call recorded for `O=C(c1ccccc1O)c1cc(-c2ncc3c(=O)c4ccccc4oc3n2)c(-c2ccccc2O)[nH]c1=O` was what?
Response given: FALSE

Challenge: Each compound tested received a call. Report the one for COc1ccc(C2[C@H]3C(=O)N(c4ccc(Cc5ccc(N6C(=O)[C@@H]7ON(c8ccccc8)C(c8ccc(OC)cc8)[C@@H]7C6=O)cc5)cc4)C(=O)[C@H]3ON2c2ccccc2)cc1 (stereo not given in full) .
Response given: FALSE

Challenge: I would be grateful if you could indicate the recorded call for `Cc1cc(C)nc(NS(=O)(=O)c2ccc(NC(=O)c3cccc4c(Nc5ccc(S(=O)(=O)Nc6nc(C)cc(C)n6)cc5)c5ccc(Cl)cc5nc34)cc2)n1` .
Response given: FALSE

Challenge: In this assay, the call recorded for C/C(=N\O)C1CC2C=C(C#N)C1N(Cc1ccccc1)C2 (stereo not given) was what?
Response given: FALSE

Challenge: Just curious, what result did Cc1ccccc1OC(C)C(=O)NN1C(=O)CSC1c1ccc(Cl)cc1 (stereo not given) get here?
Response given: FALSE

Challenge: For this compound, state the assay outcome: `CCOC(=O)[N-]c1ccc(S(=O)(=O)[O+](C)CCl)cc1.CCOC(=O)[N-]c1ccc(S(=O)(=O)[O+](C)CCl)cc1.NC(=O)N=O.NC(=O)OCCCl`
Response given: FALSE

Challenge: What outcome does the record of this test show for `CCOC(=O)/C(=C\c1ccc[nH]1)C(=O)c1ccccc1` ?
Response given: FALSE
